Item-by-item account of PBM E-score
Target: Ylr278c (UniProt Q05854)
Sequence (Q05854 whole entry): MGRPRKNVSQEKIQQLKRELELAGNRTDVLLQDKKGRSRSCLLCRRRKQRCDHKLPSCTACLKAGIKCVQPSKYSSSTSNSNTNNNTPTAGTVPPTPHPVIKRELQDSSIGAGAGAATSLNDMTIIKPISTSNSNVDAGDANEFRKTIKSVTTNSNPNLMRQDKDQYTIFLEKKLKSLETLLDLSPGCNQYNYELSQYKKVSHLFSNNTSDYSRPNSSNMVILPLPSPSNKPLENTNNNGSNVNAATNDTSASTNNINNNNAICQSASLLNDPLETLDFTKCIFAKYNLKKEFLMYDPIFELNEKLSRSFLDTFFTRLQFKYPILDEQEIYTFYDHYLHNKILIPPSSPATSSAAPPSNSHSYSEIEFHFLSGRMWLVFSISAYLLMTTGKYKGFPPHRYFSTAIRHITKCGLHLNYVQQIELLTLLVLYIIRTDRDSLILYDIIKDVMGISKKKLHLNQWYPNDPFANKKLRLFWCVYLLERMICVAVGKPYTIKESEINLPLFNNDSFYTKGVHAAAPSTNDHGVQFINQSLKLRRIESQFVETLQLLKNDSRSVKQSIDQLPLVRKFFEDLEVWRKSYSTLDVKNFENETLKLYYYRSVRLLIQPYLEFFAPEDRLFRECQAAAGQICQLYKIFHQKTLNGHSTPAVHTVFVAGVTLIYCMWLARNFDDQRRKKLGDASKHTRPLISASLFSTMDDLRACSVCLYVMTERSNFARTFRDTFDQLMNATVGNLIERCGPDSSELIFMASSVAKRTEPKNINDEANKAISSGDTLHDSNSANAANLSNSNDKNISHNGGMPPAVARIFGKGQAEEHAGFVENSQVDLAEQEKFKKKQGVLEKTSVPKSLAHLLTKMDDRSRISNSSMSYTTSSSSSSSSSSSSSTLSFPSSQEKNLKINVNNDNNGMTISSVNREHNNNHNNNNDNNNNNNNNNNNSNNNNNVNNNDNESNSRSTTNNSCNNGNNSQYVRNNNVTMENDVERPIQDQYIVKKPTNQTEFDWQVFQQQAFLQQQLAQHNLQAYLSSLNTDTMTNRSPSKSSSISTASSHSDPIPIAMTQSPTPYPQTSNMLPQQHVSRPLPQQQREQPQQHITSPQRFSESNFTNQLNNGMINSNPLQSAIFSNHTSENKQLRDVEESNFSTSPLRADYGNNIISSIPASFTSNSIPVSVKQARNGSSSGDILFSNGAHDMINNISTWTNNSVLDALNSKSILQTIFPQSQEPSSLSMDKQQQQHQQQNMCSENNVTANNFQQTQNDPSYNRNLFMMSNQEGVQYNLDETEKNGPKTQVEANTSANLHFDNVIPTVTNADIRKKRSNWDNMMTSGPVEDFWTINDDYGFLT
Assay: PBM E-score (8-mer binding enrichment) (E-score (-0.5 to 0.5)); higher = stronger / more preferred TF binding
Settings: protein concentration: 200 nM; construct: GST-DNA-binding domain
Whole data set: some 33,000 sequences, median “E-score (-0.5 to 0.5)” near -0.054, cut for the highest 2% near 0.39. The sample as a whole holds a higher share of the highest values than the screen did.
Enter the number alone.

The cases that follow already have their PBM E-score on record.
{"columns": ["MACROMOLECULE SEQUENCE", "ASSAY TARGET", "ENDPOINT NAME", "ENDPOINT VALUE"],
 "data": [
  ["CAGGACCG", "Ylr278c (UniProt Q05854)", "PBM E-score", 0.0623],
  ["GCGGGACC", "Ylr278c (UniProt Q05854)", "PBM E-score", 0.216],
  ["ACGGGATC", "Ylr278c (UniProt Q05854)", "PBM E-score", 0.109],
  ["CTCCGCGA", "Ylr278c (UniProt Q05854)", "PBM E-score", 0.403],
  ["GTCCGTCA", "Ylr278c (UniProt Q05854)", "PBM E-score", 0.289],
  ["AACACCTC", "Ylr278c (UniProt Q05854)", "PBM E-score", -0.251],
  ["GTCCGTAA", "Ylr278c (UniProt Q05854)", "PBM E-score", 0.331],
  ["CGGGGATC", "Ylr278c (UniProt Q05854)", "PBM E-score", 0.408],
  ["CGGGGATA", "Ylr278c (UniProt Q05854)", "PBM E-score", 0.349],
  ["CACCGCGC", "Ylr278c (UniProt Q05854)", "PBM E-score", 0.201]
]}

Item "CTCCGTCA" has what recorded PBM E-score? 0.421

Query "GCGGATTA" next 0.261

Query "ACTGTCAG" next -0.147

Query "ACGGGACC" next 0.0315

Query "CCCCGTCC" next 0.252

====

Item-by-item account of PBM E-score
Biological target: Ylr278c (UniProt Q05854)
Assay: PBM E-score (8-mer binding enrichment) (E-score (-0.5 to 0.5)); higher = stronger / more preferred TF binding
Conditions: protein concentration: 200 nM; construct: GST-DNA-binding domain
Over roughly 33,000 sequences, “E-score (-0.5 to 0.5)” has its median near -0.054; the highest 2% begin near 0.39. This excerpt belongs to a sample that is enriched for the highest values.

{"columns": ["MACROMOLECULE SEQUENCE", "PBM E-score"],
 "data": [
  ["CCGATTCC", 0.393]
]}

Item "GCGATTCC" has what recorded PBM E-score? 0.237

Query "ATACTGCC" next 0.013

Query "GTAGGAGA" next -0.0599

Query "CGCGTCCA" next 0.0142

Query "ATCGGATC" next 0.33

Query "CTGATTTC" next -0.0243

Query "CGGATTTC" next 0.448

Query "CAAGGAGA" next -0.105

====

Target: Ylr278c (UniProt Q05854)
Assay: PBM E-score (8-mer binding enrichment) (E-score (-0.5 to 0.5)); higher = stronger / more preferred TF binding
Conditions: protein concentration: 200 nM; construct: GST-DNA-binding domain
Over roughly 33,000 sequences, “E-score (-0.5 to 0.5)” has its median near -0.054; the highest 2% begin near 0.39. The list comes from a sample in which the highest values are over-represented; it also holds close analogues and randomly drawn sequences.
ENDPOINT NAME: PBM E-score
Enter the number alone.

The cases that follow already have their PBM E-score on record.
{"columns": ["MACROMOLECULE SEQUENCE", "ASSAY TARGET", "PBM E-score"],
 "data": [
  ["ACTGAGAG", "Ylr278c (UniProt Q05854)", -0.25],
  ["CCCGGATC", "Ylr278c (UniProt Q05854)", 0.403]
]}

Item "AGGACATA" has what recorded PBM E-score? -0.278

====

Item-by-item account of PBM E-score
Target: Ylr278c (UniProt Q05854)
Assay: PBM E-score (8-mer binding enrichment) (E-score (-0.5 to 0.5)); higher = stronger / more preferred TF binding
Details: protein concentration: 200 nM; construct: GST-DNA-binding domain
Over roughly 33,000 sequences, “E-score (-0.5 to 0.5)” has its median near -0.054; the highest 2% begin near 0.39. The list comes from a sample in which the highest values are over-represented; it also holds close analogues and randomly drawn sequences.

The cases that follow already have their PBM E-score on record.
{"columns": ["MACROMOLECULE SEQUENCE", "PBM E-score"],
 "data": [
  ["CAGCGGAG", 0.408],
  ["ATACCGGA", 0.405]
]}

Shifting focus to the sequence that follows.
Item "CGTCCGGC" has what recorded PBM E-score? 0.407

====

Target: Ylr278c (UniProt Q05854)
Assay: PBM E-score (8-mer binding enrichment) (E-score (-0.5 to 0.5)); higher = stronger / more preferred TF binding
Settings: protein concentration: 200 nM; construct: GST-DNA-binding domain
In all, about 33,000 sequences were measured (“E-score (-0.5 to 0.5)”: median about -0.054, highest 2% from about 0.39 on). The entries come from a sample that favours the highest values as a whole.
Item-by-item account of PBM E-score
Enter the number alone.

The cases that follow already have their PBM E-score on record.
{"columns": ["MACROMOLECULE SEQUENCE", "ASSAY TARGET", "ENDPOINT VALUE"],
 "data": [
  ["GCTCCCGA", "Ylr278c (UniProt Q05854)", 0.0641],
  ["CGACTCAA", "Ylr278c (UniProt Q05854)", 0.0186],
  ["ATCAGCGG", "Ylr278c (UniProt Q05854)", 0.29],
  ["AGCCGGTC", "Ylr278c (UniProt Q05854)", 0.134],
  ["CCGGAGAC", "Ylr278c (UniProt Q05854)", 0.444]
]}

Request - read-out PBM E-score | tested on Ylr278c (UniProt Q05854) | sequence "AGCCGGGG" 0.26

Query "ACTATTGC" next 0.0531

Query "ATGGAGAA" next 0.148

Query "GTGTCGTA" next -0.209

Query "ACTCCAGG" next 0.00347

====

Target: Ylr278c (UniProt Q05854)
Assay: PBM E-score (8-mer binding enrichment) (E-score (-0.5 to 0.5)); higher = stronger / more preferred TF binding
Conditions: protein concentration: 200 nM; construct: GST-DNA-binding domain
In all, about 33,000 sequences were measured (“E-score (-0.5 to 0.5)”: median about -0.054, highest 2% from about 0.39 on). Only a selection was taken, and the highest values are over-represented in it overall.
ENDPOINT NAME: PBM E-score
Enter the number alone.

The cases that follow already have their PBM E-score on record.
{"columns": ["MACROMOLECULE SEQUENCE", "ENDPOINT VALUE"],
 "data": [
  ["AAGGAGTA", -0.0326],
  ["CATCGGGG", 0.314],
  ["TATCCGAA", 0.371]
]}

Item "CGTTCGGC" has what recorded PBM E-score? 0.235

Query "GGTTCGCA" next 0.0401

Query "CCCGGCCG" next 0.354

====

Biological target: Ylr278c (UniProt Q05854)
Test: PBM E-score (8-mer binding enrichment) (E-score (-0.5 to 0.5)); higher = stronger / more preferred TF binding
Details: protein concentration: 200 nM; construct: GST-DNA-binding domain
Over roughly 33,000 sequences, “E-score (-0.5 to 0.5)” has its median near -0.054; the highest 2% begin near 0.39. Only a selection was taken, and the highest values are over-represented in it overall.
ENDPOINT NAME: PBM E-score
Enter the number alone.

{"columns": ["MACROMOLECULE SEQUENCE", "ENDPOINT VALUE"],
 "data": [
  ["ATTGACCA", -0.196],
  ["CGAAAGCG", -0.00844],
  ["ATATCTCA", 0.0231]
]}

Shifting focus to the sequence that follows.
Item "AAGGCACA" has what recorded PBM E-score? -0.231

====

Target: Ylr278c (UniProt Q05854)
Assay: PBM E-score (8-mer binding enrichment) (E-score (-0.5 to 0.5)); higher = stronger / more preferred TF binding
Details: protein concentration: 200 nM; construct: GST-DNA-binding domain
Over roughly 33,000 sequences, “E-score (-0.5 to 0.5)” has its median near -0.054; the highest 2% begin near 0.39. For the sample, the highest values were picked, then their nearest neighbours and some sequences at random.
Hi all, reminder that labels come from PBM E-score, split as group A: < -0.08; group B: ≥ -0.08 and < 0.2; group C: ≥ 0.2

Below, 6 sequences whose answers are already recorded.
{"columns": ["MACROMOLECULE SEQUENCE", "ASSIGNED CLASS"],
 "data": [
  ["ATAGCGAA", "group A"],
  ["ACTCCGTA", "group C"],
  ["CCTGTCCC", "group A"],
  ["CAATCGGG", "group C"],
  ["TAAGAGTA", "group A"],
  ["GAATCGGC", "group C"]
]}

Into which category would you place "ACAATGGT" ? group A

Query "GAGGCTAA" next group B

Query "TAGTCGGA" next group C

Query "ACTCCGTC" next group C

Query "CTTTGCCC" next group A

Query "CCTCTCAA" next group B

Query "ATGTCTAC" next group A
